Target: human DGKζ (Homo sapiens, UniProt Q13574)
Construct: TVMV protease cleavage site (C); Hexa-His (C); made in house; host or cells: Sf9 insect cells (baculovirus, Bac-to-Bac)
Sequence (Q13574 with tags, fused parts or gaps isoform Q13574-4): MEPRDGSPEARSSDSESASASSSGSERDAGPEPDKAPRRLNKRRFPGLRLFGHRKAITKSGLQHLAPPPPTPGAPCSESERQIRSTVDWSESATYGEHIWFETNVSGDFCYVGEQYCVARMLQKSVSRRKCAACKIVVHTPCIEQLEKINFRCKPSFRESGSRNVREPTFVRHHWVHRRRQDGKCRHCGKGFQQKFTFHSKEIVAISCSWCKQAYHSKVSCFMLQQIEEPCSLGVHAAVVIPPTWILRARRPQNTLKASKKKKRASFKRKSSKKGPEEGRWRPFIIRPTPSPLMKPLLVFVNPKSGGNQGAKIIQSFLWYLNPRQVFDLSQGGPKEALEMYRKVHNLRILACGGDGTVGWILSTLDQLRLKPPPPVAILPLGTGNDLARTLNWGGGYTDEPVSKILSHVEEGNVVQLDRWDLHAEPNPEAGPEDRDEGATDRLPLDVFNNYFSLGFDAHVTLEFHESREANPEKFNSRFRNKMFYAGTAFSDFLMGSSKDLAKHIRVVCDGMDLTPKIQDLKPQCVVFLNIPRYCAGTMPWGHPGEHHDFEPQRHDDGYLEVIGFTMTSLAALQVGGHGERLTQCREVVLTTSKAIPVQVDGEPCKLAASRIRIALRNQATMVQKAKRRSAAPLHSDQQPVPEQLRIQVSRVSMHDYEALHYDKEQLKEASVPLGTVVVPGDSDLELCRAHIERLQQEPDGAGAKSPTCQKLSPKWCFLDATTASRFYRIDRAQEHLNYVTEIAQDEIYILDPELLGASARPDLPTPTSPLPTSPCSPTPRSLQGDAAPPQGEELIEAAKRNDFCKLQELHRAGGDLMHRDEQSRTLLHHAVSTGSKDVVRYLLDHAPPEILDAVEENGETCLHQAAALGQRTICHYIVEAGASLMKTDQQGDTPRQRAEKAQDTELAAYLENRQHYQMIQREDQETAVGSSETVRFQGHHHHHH
Assay: DGKζ LIPGLO assay (extruded liposome substrate), in vitro DGK inhibition
Type: biochemical
Conditions: DGKζ liposome (LIPGLO) assay; read-out: DGKz LIPGLO IC50
pIC50: −log10 of the molar value.
resultType: pIC50

[I] C[C@@H]1CN(c2cc(=O)n(C)c3ccc(C#N)nc23)[C@@H](C)CN1C(c1ccc(F)cc1)c1nc(C2CC2)no1 (single isomer, unassigned) [Example 735]
[II] C[C@@H]1CN(c2c(C#N)c(=O)n(C)c3ccc(C#N)nc23)[C@@H](C)CN1C(c1ccccc1)c1ccc(F)cc1 (stereo partly shown) [Example 807]
[III] C[C@@H]1CN(c2c(C#N)c(=O)n(C)c3ccc(C#N)nc23)[C@@H](C)CN1C(c1ccc(F)cc1)c1cnn(C)c1 (stereo partly shown) [Example 847]
*Q* Form: Sort by [pIC50] Order [ ascending ] The response must list the labels following the requested ordering.
*A* III, II, I
(III: 5.13, II: 5.59, I: 7.21)
